Target: T1, recombinant human activated Factor VII (FVIIa) (human, UniProt P08709 61-212; P08709 213-466, ten glutamate residues of the Gla domain may be gamma-carboxylated)
T1 construct: chains tethered by a disulfide bond; also called Factor VIIa; rFVIIa
T1 sequence 1: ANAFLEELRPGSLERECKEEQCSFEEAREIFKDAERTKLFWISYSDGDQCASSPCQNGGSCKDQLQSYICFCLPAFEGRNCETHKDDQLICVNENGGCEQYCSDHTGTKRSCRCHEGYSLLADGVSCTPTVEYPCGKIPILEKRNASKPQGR
T1 sequence 2: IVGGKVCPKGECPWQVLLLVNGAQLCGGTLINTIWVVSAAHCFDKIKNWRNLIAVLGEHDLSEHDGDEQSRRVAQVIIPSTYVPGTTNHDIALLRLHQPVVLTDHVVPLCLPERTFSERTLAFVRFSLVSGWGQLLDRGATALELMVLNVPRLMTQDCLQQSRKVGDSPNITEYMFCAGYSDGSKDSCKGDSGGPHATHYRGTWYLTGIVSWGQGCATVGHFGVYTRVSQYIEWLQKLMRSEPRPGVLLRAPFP
Assay: BLI (Fortebio)
Procedure: All steps were performed in running buffer (20 mM HEPES buffer (pH 7.4), 150 mM NaCl, 5 mM CaCl2, 0.03% Tween 20, 1 mg/ml IgG-free BSA) at […] Antibodies were captured on anti-human tips (AHC, Fortebio) for 3 min at a concentration of 10 ug/ml. […] Following this, association was monitored for 3 min using four different concentrations of VIIa (25 nm, 50 nM, 100 nM, and 200 nM), followed by a 3 mi dissociation. Sensorgrams were analysed using Fortebio data analysis software.
Recorded Kd values for a group of binders are listed next.
Quantity name: Kd (nM)

{"columns": ["Binder", "Quantity name", "Recorded value"],
 "data": [
  ["VH SEQ ID NO 562 / VL SEQ ID NO 342 (antibody, IgG4, V domains shown, humanized 11F2; IgG4 S228P/kappa) VH: QVQLQESGPGLVKPSDTLSLTCAVSGYSISSDSAWSWIRQPPGKGLEWIGYIQYSGSTNYNPSLKSRVTMSRDTSKNQFSLKLSSVTALDTAVYYCARSVNYYGNSFAVGPWGQGTLVTVSS VL: EIVLTQSPATLSLSPGERATLSCRASQGISDYLHWYQQKPGQAPRLLIKYTSQPATGIPARFSGSGSGRDFTLTISSLEPEDFAVYYCQNGHSFPLTFGAGTKLELK", "Kd", 1.3],
  ["VH SEQ ID NO 642 / VL SEQ ID NO 310 (antibody, IgG4, V domains shown, humanized 11F2; IgG4 S228P/kappa) VH: QVQLQESGPGLVKPSQTLSLTCTVSGYSISSDSAWSWIRQPPGKGLEWIGYIYYSGSTNYNPSLKSRVTISVDTSKNQFSLKLSSVTAADTAVYYCARSVNYYGNSFAVGYWGQGTSVTVSS VL: EIVLTQSPATLSLSPGERATLSCRASQGISDYLAWYQQKPGQAPRLLIKYASQPATGIPARFSGSGSGTDFTLTISSLEPEDFAVYYCQNGHSFPLTFGQGTKLEIK", "Kd", 1600],
  ["VH SEQ ID NO 314 / VL SEQ ID NO 478 (antibody, IgG4, V domains shown, humanized 11F2; IgG4 S228P/kappa) VH: QVQLQESGPGLVEPSDTLSLTCAVSGYSISSDSAWSWIRQPPGKGLEWIGYIQYSGSTNYNPSLKSRVTMSVDTSKNQFSLKLSSVTALDTAVYYCARSVNYYGNSFAVGPWGQGTLVTVSS VL: EIVLTQSPATLSLSPGERATLSCRASQGVSDYLHWYQQKPGQAPRLLIKYASQPATGIPARFSGSGSGTDFTLTISSLEPEDFAVYYCQQGHSFPLTFGQGTKLEIK", "Kd", 64],
  ["VH SEQ ID NO 586 / VL SEQ ID NO 358 (antibody, IgG4, V domains shown, humanized 11F2; IgG4 S228P/kappa) VH: QVQLQESGPGLVKPSDTLSLTCAVSGYSISSDSAWSWIRQPPGKGLEWIGYIQYSGSTNYNPSLKSRVTMSVDTSKNQFSLKLSSVTALDTAVYYCARSVNYYGNSFAVGYWGQGTLVTVSS VL: EIVLTQSPATLSLSPGERATLSCRASQGISDYLHWYQQKPGQAPRLLIKYTSQPATGIPARFSGSGSGTDFTLTISSLEPEDFAVYYCQNGHSFPLTFGQGTKLEIK", "Kd", 11],
  ["VH SEQ ID NO 602 / VL SEQ ID NO 494 (antibody, IgG4, V domains shown, humanized 11F2; IgG4 S228P/kappa) VH: QVQLQESGPGLVKPSQTLSLTCTVSGGSISSDSAWSWIRQPPGKGLEWIGYIQYSGSTNYNPSLKSRVTISVDTSKNQFSLKLSSVTAADTAVYYCARSVNYYGNSFAVGYWGQGTLVTVSS VL: EIVLTQSPATLSLSPGERATLSCRASQGVSDYLHWYQQKPGQAPRLLIKYASQPATGIPARFSGSGSGTDFTLTISSLEPEDVAVYYCQNGHSFPLTFGQGTKLEIK", "Kd", 14]
]}
